assay: Plasma pharmacokinetics, healthy subjects; assay type: in vivo, human; details: human; plasma prodrug; healthy subjects; 1000 mg oral dose; geometric mean (CV%); read-out: Cmax
experimentalEndpoint: Cmax (ng/mL)
Number in ng/mL, nothing else.

Using the record for CCOC(=O)OC[C@H]1O[C@@H](Oc2nn(C(C)C)c(C)c2Cc2ccc(OC(C)C)cc2)[C@H](O)[C@@H](O)[C@@H]1O [Remogliflozin etabonate, remogliflozin etabonate] , report its Cmax.
144

----------
experiment: Plasma pharmacokinetics, healthy subjects; assay type: in vivo, human; settings: human; plasma prodrug; healthy subjects; 1000 mg oral dose; geometric mean (CV%)
experimentalEndpoint: AUC(0-t)

Using the record for CCOC(=O)OC[C@H]1O[C@@H](Oc2nn(C(C)C)c(C)c2Cc2ccc(OC(C)C)cc2)[C@H](O)[C@@H](O)[C@@H]1O [Remogliflozin etabonate, remogliflozin etabonate] , report its AUC(0-t).
107 ng·h/mL

----------
test: Plasma pharmacokinetics, healthy subjects; assay type: in vivo, human; conditions: human, plasma, oral, healthy subjects; 20-1000 mg; read-out: mean T½ estimates, range across doses
experimentalEndpoint: half-life

Using the record for Cc1c(Cc2ccc(OC(C)C)cc2)c(O[C@@H]2O[C@H](CO)[C@@H](O)[C@H](O)[C@H]2O)nn1C(C)C [Remogliflozin, remogliflozin] , report its half-life.
1.38 to 2.86 h

----------
experiment: Plasma pharmacokinetics, healthy subjects; type: in vivo, human; conditions: human; plasma prodrug; healthy subjects; 20 mg oral dose; geometric mean (CV%); read-out: Cmax
experimentalEndpoint: Cmax (ng/mL)
Number in ng/mL, nothing else.

Using the record for CCOC(=O)OC[C@H]1O[C@@H](Oc2nn(C(C)C)c(C)c2Cc2ccc(OC(C)C)cc2)[C@H](O)[C@@H](O)[C@@H]1O [Remogliflozin etabonate, remogliflozin etabonate] , report its Cmax.
1.89

----------
assay: Plasma pharmacokinetics, healthy subjects; type: in vivo, human; settings: human; plasma analyte; healthy subjects; remogliflozin etabonate 150 mg oral dose; read-out: Tmax Median
Tmax values for the compounds below.
Number in min, nothing else.

Using the record for Cc1c(Cc2ccc(OC(C)C)cc2)c(O[C@@H]2O[C@H](CO)[C@@H](O)[C@H](O)[C@H]2O)nn1C(C)C [Remogliflozin, remogliflozin] , report its Tmax.
39.6

***
Using the record for Cc1[nH]nc(O[C@@H]2O[C@H](CO)[C@@H](O)[C@H](O)[C@H]2O)c1Cc1ccc(OC(C)C)cc1 [GSK279782] , report its Tmax.
60

----------
assay: Plasma pharmacokinetics, healthy subjects; format: in vivo, human; details: human; plasma prodrug; healthy subjects; 500 mg oral dose; median; read-out: Tmax
experimentalEndpoint: Tmax (h)
Number in h, nothing else.

Using the record for CCOC(=O)OC[C@H]1O[C@@H](Oc2nn(C(C)C)c(C)c2Cc2ccc(OC(C)C)cc2)[C@H](O)[C@@H](O)[C@@H]1O [Remogliflozin etabonate, remogliflozin etabonate] , report its Tmax.
1.25

----------
test: Plasma pharmacokinetics, healthy subjects; assay type: in vivo, human; details: human; plasma analyte; healthy subjects; remogliflozin etabonate 1000 mg oral dose; read-out: Cmax Geometric mean (CV%)
experimentalEndpoint: Cmax (ng/mL)
Number in ng/mL, nothing else.

Using the record for Cc1c(Cc2ccc(OC(C)C)cc2)c(O[C@@H]2O[C@H](CO)[C@@H](O)[C@H](O)[C@H]2O)nn1C(C)C , report its Cmax.
4820

// moving on: another record for Cmax
Using the record for Cc1[nH]nc(O[C@@H]2O[C@H](CO)[C@@H](O)[C@H](O)[C@H]2O)c1Cc1ccc(OC(C)C)cc1 , report its Cmax.
1290

----------
test: Plasma pharmacokinetics, healthy subjects; format: in vivo, human; conditions: human, plasma, po, 50 mg, plasma analyte; healthy subjects; remogliflozin etabonate 50 mg oral dose; read-out: T½ Geometric mean (CV%) (converted)
half-life values for the molecules below.
Number in h, nothing else.

Using the record for Cc1[nH]nc(O[C@@H]2O[C@H](CO)[C@@H](O)[C@H](O)[C@H]2O)c1Cc1ccc(OC(C)C)cc1 , report its half-life.
2.19

// moving on: another record for half-life
Using the record for Cc1c(Cc2ccc(OC(C)C)cc2)c(O[C@@H]2O[C@H](CO)[C@@H](O)[C@H](O)[C@H]2O)nn1C(C)C , report its half-life.
1.47

----------
assay: Plasma pharmacokinetics, healthy subjects; assay type: in vivo, human; settings: human; plasma prodrug; healthy subjects; 500 mg oral dose; geometric mean (CV%)
experimentalEndpoint: AUC(0-t)

Using the record for CCOC(=O)OC[C@H]1O[C@@H](Oc2nn(C(C)C)c(C)c2Cc2ccc(OC(C)C)cc2)[C@H](O)[C@@H](O)[C@@H]1O [Remogliflozin etabonate, remogliflozin etabonate] , report its AUC(0-t).
35.4 ng·h/mL

----------
test: Plasma pharmacokinetics, healthy subjects; format: in vivo, human; conditions: human; plasma analyte; healthy subjects; remogliflozin etabonate 150 mg oral dose; read-out: AUC(0-∞) Geometric mean (CV%)
experimentalEndpoint: AUC(0-inf) (ng·h/mL)
Number in ng·h/mL, nothing else.

Using the record for Cc1c(Cc2ccc(OC(C)C)cc2)c(O[C@@H]2O[C@H](CO)[C@@H](O)[C@H](O)[C@H]2O)nn1C(C)C [Remogliflozin, remogliflozin] , report its AUC(0-inf).
991

// moving on: another record for AUC(0-inf)
Using the record for Cc1[nH]nc(O[C@@H]2O[C@H](CO)[C@@H](O)[C@H](O)[C@H]2O)c1Cc1ccc(OC(C)C)cc1 [GSK279782] , report its AUC(0-inf).
447

----------
Experiment: Plasma pharmacokinetics, healthy subjects
Type: in vivo, human
Conditions: human; plasma prodrug; healthy subjects; 1000 mg oral dose; geometric mean (CV%); n = 7; read-out: AUC(0–∞)
Procedure: Ten healthy subjects were evaluated in 5 study sessions, each separated by approximately 2 weeks. At each study session, subjects received either an oral dose of remogliflozin etabonate or placebo after an overnight fast. […] The available safety and PK results from each dosing period were evaluated before proceeding to the next dose level. […] Ratios of AUC(0–∞) remogliflozin to AUC(0–last) remogliflozin etabonate were calculated including molecular weight corrections. […]
experimentalEndpoint: AUC(0-inf)
Write the numeric value and append its unit.

Using the record for CCOC(=O)OC[C@H]1O[C@@H](Oc2nn(C(C)C)c(C)c2Cc2ccc(OC(C)C)cc2)[C@H](O)[C@@H](O)[C@@H]1O [Remogliflozin etabonate, remogliflozin etabonate] , report its AUC(0-inf).
126 ng·h/mL

----------
assay: Plasma pharmacokinetics, healthy subjects; type: in vivo, human; settings: human, plasma, po, 150 mg, plasma analyte; healthy subjects; remogliflozin etabonate 150 mg oral dose; read-out: T½ Geometric mean (CV%) (converted)
half-life values for the compounds below.
Number in h, nothing else.

Using the record for Cc1[nH]nc(O[C@@H]2O[C@H](CO)[C@@H](O)[C@H](O)[C@H]2O)c1Cc1ccc(OC(C)C)cc1 [GSK279782] , report its half-life.
2.28

***
Using the record for Cc1c(Cc2ccc(OC(C)C)cc2)c(O[C@@H]2O[C@H](CO)[C@@H](O)[C@H](O)[C@H]2O)nn1C(C)C [Remogliflozin, remogliflozin] , report its half-life.
1.59

----------
test: Plasma pharmacokinetics, healthy subjects; assay type: in vivo, human; settings: human, plasma, po, 50 mg, plasma prodrug; healthy subjects; 50 mg oral dose; geometric mean (CV%); n = 6; read-out: T½ (converted)
experimentalEndpoint: half-life

Using the record for CCOC(=O)OC[C@H]1O[C@@H](Oc2nn(C(C)C)c(C)c2Cc2ccc(OC(C)C)cc2)[C@H](O)[C@@H](O)[C@@H]1O [Remogliflozin etabonate, remogliflozin etabonate] , report its half-life.
21.2 min

----------
assay: Plasma pharmacokinetics, healthy subjects; assay type: in vivo, human; conditions: human, plasma, oral, healthy subjects; 20-1000 mg; read-out: median Tmax estimates, range across doses
experimentalEndpoint: Tmax

Using the record for Cc1[nH]nc(O[C@@H]2O[C@H](CO)[C@@H](O)[C@H](O)[C@H]2O)c1Cc1ccc(OC(C)C)cc1 , report its Tmax.
1 to 1.5 h

// moving on: another record for Tmax
Using the record for CCOC(=O)OC[C@H]1O[C@@H](Oc2nn(C(C)C)c(C)c2Cc2ccc(OC(C)C)cc2)[C@H](O)[C@@H](O)[C@@H]1O [Remogliflozin etabonate, remogliflozin etabonate] , report its Tmax.
0.52 to 1.25 h

----------
half-life values for the molecules below.
test: Plasma pharmacokinetics, T2DM subjects; type: in vivo, human; conditions: human, plasma analyte, remogliflozin etabonate 50 mg oral dose, read-out: T½ Geometric mean (CV%) (converted)
Number in h, nothing else.

Example entries and their recorded answers appear below.
Using the record for Cc1[nH]nc(O[C@@H]2O[C@H](CO)[C@@H](O)[C@H](O)[C@H]2O)c1Cc1ccc(OC(C)C)cc1 , report its half-life.
2.05

Using the record for CCOC(=O)OC[C@H]1O[C@@H](Oc2nn(C(C)C)c(C)c2Cc2ccc(OC(C)C)cc2)[C@H](O)[C@@H](O)[C@@H]1O [Remogliflozin etabonate, remogliflozin etabonate] , report its half-life.
0.61

***
Using the record for Cc1c(Cc2ccc(OC(C)C)cc2)c(O[C@@H]2O[C@H](CO)[C@@H](O)[C@H](O)[C@H]2O)nn1C(C)C , report its half-life.
1.59

// data source = paper PMC3700763
